// values below are reported viability decrease
# Method: growth inhibition of GSK3B-pretreated HCT116 cells – cell-based, CellTiter-Glo, 0.2 to 20 µM (AID 1117336)
# Condition Summary: HCT116 viability after GSK3B inhibitor, at 20 µM, active compounds read high
A number alone suffices; assume %.

Any idea what its viability decrease is? The compound is CC(C)OC(=O)c1cc2c(OCC(O)CNC(C)(C)C)cccc2[nH]1 (stereo not drawn)
9.2

Any idea what its viability decrease is? The compound is CCOc1ccc2nc(S(N)(=O)=O)sc2c1
16.7

Any idea what its viability decrease is? The compound is CC(=O)N[C@@H](CC(C)C)C(=O)O
-27.2

----------
# Method: differential killing of epithelial or mesenchymal cells, primary screen, imaging, PC-3E GFP, TEM4-18 mCherry, co-culture (AID 1345086);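 further: normalised mesenchymal count divided by normalised epithelial count so high means epithelial killing; cells exposed to compound for 72 h before imaging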
# Condition Summary: imaging cell counts, at 1 µM, actives lie on both sides, counts scaled to control wells, 1 = unselective
Bridge positions count the residues as written; N and C are the ends. Square brackets hold non-standard residues; d marks the D form. Peptide text beside a SMILES is read from it. * marks the point of attachment. Octanoyl(6-Me) = CCC(C)CCCCC(=O)*; Dab = NCC[CH](N)C(=O)O
Binning of red/green cell ratio (normalised) into classes: band 1: < 0.9; band 2: ≥ 0.9 and < 1; band 3: ≥ 1

>  <Compound>
CCOc1cccc(C(=O)c2ccc(O)c(O)c2O)c1

>  <Class Assignment>
band 2

$$$$
>  <Compound>
CCN(CC)CCOc1ccc2c(c1)C(=O)c1cc(OCCN(CC)CC)ccc1-2

>  <Class Assignment>
band 3

$$$$
>  <Compound>
CNC(=O)c1c(I)c(NC(C)=O)c(I)c(C(=O)O)c1I

>  <Class Assignment>
band 1

$$$$
>  <Compound>
CC(=O)NCCCS(=O)(=O)O

>  <Class Assignment>
band 2

$$$$
>  <Compound>
CCC(C)CCCCC(=O)NC(CCN)C(=O)NC(C(=O)NC(CCN)C(=O)NC1CCNC(=O)C(C(C)O)NC(=O)C(CCN)NC(=O)C(CCN)NC(=O)C(CC(C)C)NC(=O)C(Cc2ccccc2)NC(=O)C(CCN)NC1=O)C(C)O (stereo unspecified) ({Octanoyl(6-Me)}-[Dab]T[Dab][Dab][Dab]FL[Dab][Dab]T; lactam 4-C; configuration not given here)

>  <Class Assignment>
band 3

$$$$

State the class of the compound shown: Cc1cc(O)cc(O)c1C(=O)O
band 1

State the class of the compound shown: CC(=O)N[C@@H](CCC(N)=O)C(=O)O
band 2

State the class of the compound shown: COc1c(O)cc2oc3cc(O)c(CC=C(C)C)c(O)c3c(=O)c2c1CC=C(C)C
band 1

State the class of the compound shown: COc1cc(OC)c2ccc(=O)oc2c1
band 3

State the class of the compound shown: COc1cc(-c2coc3cc(OCc4ccccc4)c(OC)c(O)c3c2=O)cc(OCc2ccccc2)c1OC
band 1

State the class of the compound shown: CCn1nc(C(=O)O)c(=O)c2cc3c(cc21)OCO3
band 3

State the class of the compound shown: COc1cc2ncnc(Nc3ccc(F)c(Cl)c3)c2cc1OCCCN1CCOCC1
band 3

State the class of the compound shown: O=C(O)C1=C[C@@H](O)[C@@H](O)[C@H](O)C1
band 3

State the class of the compound shown: CCCn1cnc2c1c(=O)n(CCCCC(C)=O)c(=O)n2C
band 1

State the class of the compound shown: COc1ccc(C(=O)/C=C/c2ccccc2)cc1
band 3

State the class of the compound shown: COC(=O)C1=C(C)NC(C)=C(C(=O)OCCN(C)Cc2ccccc2)C1c1cccc([N+](=O)[O-])c1 (stereo unspecified)
band 1

State the class of the compound shown: CC(C)CCCC(C)N (stereo unspecified)
band 3
